The entries below come with measured Ki values attached.
target: Somatostatin receptor type 2 (Mus musculus)
Sequence (P30875 whole entry): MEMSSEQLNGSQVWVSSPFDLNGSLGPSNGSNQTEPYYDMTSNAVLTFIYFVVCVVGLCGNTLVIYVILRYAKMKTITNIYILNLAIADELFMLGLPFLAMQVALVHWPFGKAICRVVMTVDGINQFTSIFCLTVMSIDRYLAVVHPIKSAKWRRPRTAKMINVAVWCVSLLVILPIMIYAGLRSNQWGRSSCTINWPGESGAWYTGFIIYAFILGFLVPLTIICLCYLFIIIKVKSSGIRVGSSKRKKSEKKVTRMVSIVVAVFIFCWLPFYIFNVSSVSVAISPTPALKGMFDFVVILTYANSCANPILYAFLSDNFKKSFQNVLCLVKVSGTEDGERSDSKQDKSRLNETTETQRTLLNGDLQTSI
Where a SMILES comes first, the peptide text is derived from it. Bridges are numbered along the chain shown (N, C = ends). [ ]: non-standard residue; d: D form. The star is where a group is joined. NH(1-naphthylmethyl) = c1ccc2c(CN*)cccc2c1; Phe(4-Cl) = N[C@@H](Cc1ccc(Cl)cc1)C(=O)O; dNMeF = CN[C@H](Cc1ccccc1)C(=O)O; dNMeA = CN[C@H](C)C(=O)O; Abu = CC[C@H](N)C(=O)O
Give the quantity in nM, number only.

CC[C@H](NC(=O)[C@@H](N)Cc1ccc(Cl)cc1)C(=O)N[C@@H](Cc1ccc(O)cc1)C(=O)N[C@H](Cc1c[nH]c2ccccc12)C(=O)N[C@@H](CCCCN)C(=O)N[C@H](C(=O)N[C@@H](C)C(=O)N[C@H](Cc1ccccc1)C(N)=O)C(C)C [BIM 23067] (H-[Phe(4-Cl)][Abu]Y[dW]KVA[dF]-NH2) ... 135

Looking for the measured Ki of C[C@H](O)[C@H]1NC(=O)[C@H](CCCCN)NC(=O)[C@@H](Cc2c[nH]c3ccccc23)NC(=O)[C@@H](Cc2ccccc2)NC(=O)[C@@H](C)N(C)C(=O)[C@@H](Cc2ccccc2)N(C)C1=O (cyclo(K[dT][dNMeF][dNMeA][dF][dW])) , can you help? 26

Looking for the measured Ki of CC(C)[C@H](NC(=O)[C@H](CCCCN)NC(=O)[C@@H](Cc1c[nH]c2ccccc12)NC(=O)[C@H](Cc1ccc(O)cc1)NC(=O)[C@H](Cc1ccc(Cl)cc1)NC(=O)[C@H](N)Cc1ccccc1)C(=O)N[C@@H](Cc1ccccc1)C(=O)N[C@H](C(N)=O)[C@@H](C)O [BIM 23057] (H-[dF][Phe(4-Cl)]Y[dW]KVFT-NH2) , can you help? 2.4

Looking for the measured Ki of CC(O)C1NC(=O)C(CCCCN)NC(=O)C(Cc2c[nH]c3ccccc23)NC(=O)C(Cc2ccccc2)NC(=O)C(NC(=O)C(N)Cc2ccccc2)CSSCC(C(=O)NCc2cccc3ccccc23)NC1=O (centres undefined) [EC5-21] (H-FCFWKTC-{NH(1-naphthylmethyl)}; disulfide 2-7; configuration not given here) , can you help? 4.8
